Measured TGI values are reported for all entries that follow.
- System: ACHN renal
- TEST NAME: NCI tumour cell line growth inhibition, 48 h
Provide the reading as a plain figure in µM.

Some compounds with recorded TGI:
> print(dat)
                                   compound  recorded.measurement
1  C=C1C[C@H](O)[C@H](Br)C(C)(C)C12CCC(C)(Cl)C(Br)C2 (stereo partly specified)                  14.8
2  C=C1c2ccoc2C[C@H]2[C@H]1CC[C@@]1(O)[C@@](C)(C(=O)OC)CCC[C@]21C                  40.9

Input: What TGI value was documented for this compound, O=[N+]([O-])c1cc(Cl)cnc1Br ?
Output: 4.66

Input: State the recorded TGI for this entry: Cc1cnc(CNC(=O)c2c(=O)c3ccc(N4CCCN(C)CC4)nc3n3c2sc2ccccc23)cn1
Output: 14.9

Input: Query: TGI; subject: CC1C(C#N)(C#N)C(C#N)=C(N)C1(Cl)[N+](=O)[O-] (stereo unspecified)
Output: 23.7
